- Test Name: chemical genetic growth profiling, strain panel (AID 1159580);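 also: tested at 20 µM; growth read once vehicle control cultures reached saturation at 30 °C; 1 = growth at the plate median or of vehicle wells; lower values mean less growth of the strain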
- Condition Notes: S. cerevisiae deletion strains, growth OD, locus YPR163C, strain tif3, hits give low values
About 2,000 (36%) of roughly 5,500 compounds were called active. Another 18% or so got no clear call; they are omitted. The list shows a part of the results.
Reported normalized growth values for a set of molecules
Kindly provide the number alone.

Sample records with normalized growth:
Line Notation	normalized growth
CN1CCN(CCCN2c3ccccc3Sc3ccc(C(F)(F)F)cc32)CC1	0.0727
Cc1cc(=O)n(-c2ccccc2)n1C	0.992
CCCc1nc2c(C)cc(-c3nc4ccccc4n3C)cc2n1Cc1ccc(-c2ccccc2C(=O)O)cc1	0.997
OCCN1CCN(CCCN2c3ccccc3Sc3ccc(C(F)(F)F)cc32)CC1	0.89
CCCCc1nc(Cl)c(CO)n1Cc1ccc(-c2ccccc2-c2nn[nH]n2)cc1	1.01
NC[C@H]1O[C@H](O[C@H]2[C@H](O)[C@@H](O[C@H]3O[C@H](CO)[C@@H](O)[C@H](N)[C@H]3O)[C@H](N)C[C@@H]2N)[C@H](N)C[C@@H]1O	1.02
CN[C@@H]1[C@@H](O[C@H]2O[C@H](CO)[C@@H](N)[C@H](O)[C@H]2O)O[C@H]2C[C@@H](N)[C@H](O[C@H]3[C@H](O)[C@@H](O)[C@H](N)C[C@@H]3N)O[C@@H]2[C@@H]1O	1
COc1cc(NS(=O)(=O)c2ccc(N)cc2)ncn1	0.985

Consider now this further molecule.
Task item: Using the record for CN1CCN(CCC=C2c3ccccc3Sc3ccc(S(=O)(=O)N(C)C)cc32)CC1 , report its normalized growth.
Reply: 0.977

###

- Test Name: chemical genetic growth profiling, strain panel (AID 1159580);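 also: tested at 20 µM; growth read once vehicle control cultures reached saturation at 30 °C; 1 = growth at the plate median or of vehicle wells; lower values mean less growth of the strain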
- Condition Notes: S. cerevisiae deletion strains, growth OD, locus YOR083W, strain WHI5, hits give low values
About 2,000 (36%) of roughly 5,500 compounds were called active. Inconclusive results (about 18%) are left out. This is one part of the list.
Outcome Measure: normalized growth
Kindly provide the number alone.

Task item: Using the record for COc1cc(-c2coc3cc(O[C@@H]4O[C@H](CO)[C@@H](O)[C@H](O)[C@H]4O)c(OC)c(O)c3c2=O)cc(O)c1OC , report its normalized growth.
Reply: 1.02

Task item: Using the record for CC(=O)[C@@]1(O)CCC2C3CCC4=CC(=O)CC[C@]4(C)C3CC[C@@]21C (stereo not given in full) , report its normalized growth.
Reply: 1

Task item: Using the record for CN1CCN(CC(=O)N2c3ccccc3C(=O)Nc3cccnc32)CC1 , report its normalized growth.
Reply: 0.967

Task item: Using the record for COC1(C)CCC2OC2(C)CCC2C1CC2(C)C (stereo not given) , report its normalized growth.
Reply: 0.996

Task item: Using the record for O=C(CCc1ccc(O)cc1)c1c(O)cc(O)cc1O[C@@H]1O[C@H](CO)[C@@H](O)[C@H](O)[C@H]1O , report its normalized growth.
Reply: 1.01

###

- Test Name: chemical genetic growth profiling, strain panel (AID 1159580);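 also: tested at 20 µM; growth read once vehicle control cultures reached saturation at 30 °C; 1 = growth at the plate median or of vehicle wells; lower values mean less growth of the strain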
- Condition Notes: S. cerevisiae deletion strains, growth OD, locus YPL241C, strain CIN2, hits give low values
Hit rate of the full screen: of about 5,500 compounds, about 2,000 (36%) were called active. Another 18% or so got no clear call; they are omitted. The list shows a part of the results.
Outcome Measure: normalized growth

Molecule	normalized growth
CCOc1ccc(C(=O)c2cc(O)c(OC)c(OC)c2O)cc1	1.01 (inactive)
O=C1CC2(CCCC2)C(=O)N1CCNc1nccc(C(F)(F)F)n1	1 (inactive)
CC[C@H]1CN2CCc3cc(OC)c(OC)cc3C2C[C@@H]1CC1NCCc2cc(OC)c(OC)cc21 (some centres undefined)	1.01 (inactive)
O=C(O)[C@H](O)[C@@](O)(Cc1ccc(O)cc1)C(=O)O	1.01 (inactive)
CCOc1ccc(NC(C)=O)cc1	1.04 (inactive)
CCCCCCCCCCCCCCCCOCC(COCC(F)(F)F)OP(=O)(O)OCO (centres undefined)	0.988 (inactive)

Task item: Using the record for CC(=O)[O][Hg][c]1ccccc1 , report its normalized growth.
Reply: 0.0515 (active)

Task item: Using the record for COc1cc(OC)cc(N2C(=O)C=CC2=O)c1 , report its normalized growth.
Reply: 0.0792 (active)

Task item: Using the record for CO[C@H]1C[C@H](O[C@H]2[C@H](C)[C@@H](OC3O[C@H](C)C[C@H](N(C)C)[C@H]3OC(C)=O)[C@@H](C)C[C@]3(CO3)C(=O)[C@H](C)[C@@H](OC(C)=O)[C@@H](C)[C@@H](C)OC(=O)[C@@H]2C)O[C@@H](C)[C@@H]1OC(C)=O (some centres undefined) , report its normalized growth.
Reply: 1 (inactive)
